Value source: ChEMBL document CHEMBL1201862

# System: SNB-75
# assay_protocol: NCI tumour cell line growth inhibition, 48 h
The source made the active and inactive calls. No stated cut-off is given here; in the data, active = GI50 up to about 1.1 µM and inactive = higher.
reported_metric: GI50

Example entries and their recorded answers appear below.
molecule	measurement
CC1(C)C2CC3C(C)(C2)C31c1cc(Cl)ccc1N (stereo not given)	11.9 µM (inactive)
O=C(CCc1nnc2s/c(=C\c3ccc([N+](=O)[O-])cc3)c(=O)n12)Nc1ccc(Cl)c(Cl)c1	10.4 µM (inactive)
COc1c(N2CCCCC2)c2c(=O)c3ccccc3oc2c2cc(C)oc12	11.3 µM (inactive)

Recorded GI50 for Clc1ccc(COC(Cn2ccnc2)c2ccc(Cl)cc2Cl)cc1 (stereo not given) [ECONAZOLE NITRATE] with SNB-75, please? 15.6 µM (inactive)

Return GI50 measured with SNB-75 given this molecule: N#C/C1=C(\N)CCSSSC1 42.3 µM (inactive)
